viability, T/C: recorded values
- Test system: 496974-208-R-J2-PDC complex spheroids, growth % test/control
- experimentalProtocol: Anticancer human tumor 496974-208-R-J2-PDC patient-derived pancreatic carcinoma cell line growth inhibition [CLK]
- experimentalContext: second compound 0.0316 µM; first compound 0.03 µM; stronger effect = lower value
Respond with the bare value in %.

Here are 4 molecules together with their reported answers.
Ask: Can you share its viability, T/C? I mean this molecule: NC(=O)C(=Cn1cnc(-c2cc(C(F)(F)F)cc(C(F)(F)F)c2)n1)c1cncnc1 + CNC(=O)c1ccc(Nc2nc(OC3CCCC3)c3c(-c4ccc5nc(C)oc5c4)c[nH]c3n2)c(OC)c1
Reply: 77.3

Ask: One more molecule: NC(=O)C(=Cn1cnc(-c2cc(C(F)(F)F)cc(C(F)(F)F)c2)n1)c1cncnc1 + CN1CCN(c2cc(C(=O)Nc3cc4cc(-c5cnn(C)c5)ccc4cn3)ccn2)CC1
Reply: 67.2

Ask: Another molecule to check: C=CC(=O)Nc1cc(Nc2nccc(-c3cn(C)c4ccccc34)n2)c(OC)cc1N(C)CCN(C)C + CN1CCN(c2cc(C(=O)Nc3cc4cc(-c5cnn(C)c5)ccc4cn3)ccn2)CC1
Reply: 86.5

Ask: Note, next up: C=CC(=O)Nc1cc(Nc2nccc(-c3cn(C)c4ccccc34)n2)c(OC)cc1N(C)CCN(C)C + CNC(=O)c1ccc(Nc2nc(OC3CCCC3)c3c(-c4ccc5nc(C)oc5c4)c[nH]c3n2)c(OC)c1
Reply: 96.5

Further cases:
Ask: Consider the molecule shown here: CC(C)CC(NC(=O)C(Cc1ccccc1)NC(=O)c1cnccn1)B(O)O (stereo not given) + CN1CCN(c2cc(C(=O)Nc3cc4cc(-c5cnn(C)c5)ccc4cn3)ccn2)CC1 What is its recorded viability, T/C?
Reply: 0.32

* * *

- Tested on: 496974-208-R-J2-PDC complex spheroids, growth % test/control
- experimentalProtocol: Anticancer human tumor 496974-208-R-J2-PDC cell line growth inhibition [CLK];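 further: spheroids exposed to the drugs for 7 days before readout; 100% = DMSO vehicle control wells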
- experimentalContext: compound 0.0316 µM; stronger effect = lower value
- Text: A high-throughput screen of multi-cell type tumor spheroids was designed to identify active combinations of […] and targeted small molecules. Complex spheroids include a stromal component modeled by human endothelial cells (HUVEC) and fibroblasts modeled by human mesenchymal stem cells (MSCs). […] Compounds. […] If the clinical Cmax for an agent had not been determined, the highest concentration tested was 10 microM. […]
Listed here are compounds together with their documented viability, T/C.

Ask: Fill in the blank: the reported viability, T/C of CNC(=O)c1ccc(Nc2nc(OC3CCCC3)c3c(-c4ccc5nc(C)oc5c4)c[nH]c3n2)c(OC)c1 is ____.
Reply: 97.8% [middle of 7 runs]

Ask: Same question, CN1CCN(c2cc(C(=O)Nc3cc4cc(-c5cnn(C)c5)ccc4cn3)ccn2)CC1 this time
Reply: 103% [middle of 12 runs]

Ask: Now this one: O=C(c1cc(Cc2n[nH]c(=O)c3ccccc23)ccc1F)N1CCN(C(=O)C2CC2)CC1
Reply: 99.1%

***
Ask: Look up viability, T/C for this compound: CC(=O)O[C@H]1C(=O)[C@@]2(C)[C@H]([C@H](OC(=O)c3ccccc3)[C@]3(O)C[C@H](OC(=O)[C@H](O)[C@@H](NC(=O)c4ccccc4)c4ccccc4)C(C)=C1C3(C)C)[C@]1(OC(C)=O)CO[C@@H]1C[C@@H]2O
Reply: 34.8%

Ask: Moving on to COc1ccc([C@@H](O)c2cc(-c3ncnc4cc(N5CCOCC5)ccc34)c(F)cc2Cl)nn1
Reply: 104%
